measured-target: human recombinant H-PGDS (Homo sapiens)
Sequence (O60760 whole entry): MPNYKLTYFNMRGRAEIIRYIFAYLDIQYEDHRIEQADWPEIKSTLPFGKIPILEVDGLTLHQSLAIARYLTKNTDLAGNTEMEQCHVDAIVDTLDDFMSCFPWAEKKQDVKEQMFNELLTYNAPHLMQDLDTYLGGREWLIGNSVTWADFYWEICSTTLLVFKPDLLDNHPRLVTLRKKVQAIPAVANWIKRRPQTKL
test-protocol: Fluorescence intensity h-PGDS TBA enzyme assay
Format: biochemical
conditions: Examples up to 622 (and 3a, 3b)
readout-kind: pIC50
Remember, pIC50 is on a log scale: it is -log10 of the molar concentration.

O=C(NC1CCN(Cc2ccccn2)CC1)c1ccc(-c2cccc(F)c2)nc1 [Example 28]	8.76

Lab note: need pIC50 with human recombinant H-PGDS (Homo sapiens) for entry COC1CCCC(N2CCC(NC(=O)c3ccc(-c4cccc(F)c4)nc3)CC2)C1 (stereo not shown) [Example 549] , please look it up.
8.65

Try this compound too: O=C(NC1CCN(Cc2ccc(-c3ccccn3)cc2)CC1)c1ccc(-c2cccc(F)c2)nc1 [Example 201]
8.71

Try this compound too: O=C(NC1CCN(c2ncc3ccccc3n2)CC1)c1ccc(-c2cccc(F)c2)nc1 [Example 166]
8.46

These measurements were taken from patent US7902373B2.
